Values were extracted from PubChem BioAssay.

- system under test: Voltage-gated potassium channel subunit beta-2 (Rattus norvegicus) (UniProt P62483)
- Sequence (P62483 whole entry, looked up): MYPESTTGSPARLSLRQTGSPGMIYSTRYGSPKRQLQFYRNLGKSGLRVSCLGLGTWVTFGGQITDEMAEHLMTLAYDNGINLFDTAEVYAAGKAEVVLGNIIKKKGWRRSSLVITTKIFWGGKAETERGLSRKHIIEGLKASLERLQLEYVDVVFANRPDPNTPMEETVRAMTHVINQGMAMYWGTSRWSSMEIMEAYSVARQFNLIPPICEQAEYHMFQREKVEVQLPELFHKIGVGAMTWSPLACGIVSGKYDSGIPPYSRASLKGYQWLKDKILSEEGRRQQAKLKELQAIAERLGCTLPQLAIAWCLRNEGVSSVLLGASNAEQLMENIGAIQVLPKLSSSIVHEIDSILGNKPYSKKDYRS
- assay remarks: inhibitors of rat Kvbeta2 reductase activity – biochemical, NADPH fluorescence, primary screen (AID 622);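 also: slope of raw intensity against log time taken from 70 to 1610 s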
- condition description: recombinant KvBeta, 4-cyanobenzaldehyde reduction, at 10 µM, stronger effect = higher value
recorded metric: fluorescence slope
One number for each entry.

Below, 4 molecules whose answers are already recorded.
* CCn1c(=O)cc(SCC(=O)NCCN2CCN(Cc3ccccc3)CC2)c2ccccc21 | -0.559
* COC(=O)c1oc2ccc(Br)cc2c1NC(C)=O | -0.575
* Cc1onc(-c2ccccc2)c1C(=O)NCCN1CCOCC1 | -0.38
* Cc1noc(NS(=O)(=O)c2ccc(N3C(=O)c4ccccc4C3=O)cc2)c1C | -0.533

Lab note: each molecule below needs its fluorescence slope filled in.
1. O=C(C1CCN(c2nnc(-n3cccc3)s2)CC1)N1CCN(Cc2ccc3c(c2)OCO3)CC1
2. Cc1nc2ccccc2c(=O)n1NC(=O)Nc1ccccc1

A.
-0.593
-0.359

* * *

- assay remarks: endothelial E-selectin expression blockers – imaging, HUVEC, immunofluorescence, MLSMR starter and 10KST1 sets, primary screen (AID 487);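 also: 100% = median nuclei count of all wells on the same plate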
- condition description: HUVEC TNFalpha-induced E-selectin immunofluorescence imaging, at 2 µM; measured here: cell number, toxicity
recorded metric: nuclei count (%)
Numbers only, in %.

Below, 5 compounds whose answers are already recorded.
- Cc1c(NC(=O)c2cnn3c2NC(c2ccco2)CC3C(F)(F)F)c(=O)n(-c2ccccc2)n1C (stereo unspecified): 115
- COc1cccc(NC(=O)CSc2nnc(-c3cccs3)n2C)c1: 95.9
- COc1ccc(Cl)c(N2CCN(CCCNC(=O)Nc3ccc(C)cc3)CC2)c1: 108
- CC1(C)CC(=O)C(C=Nc2ccncc2)=C(O)C1: 120
- CCC(=O)Oc1ccc(C/C(=N\O)c2ccc(O)cc2O)o1: 115

Lab note: each compound below needs its nuclei count filled in.
1. CCn1c(SCC(=O)c2ccc(Cl)cc2)nnc1-c1ccoc1C
2. Cc1cccc(-n2c(Cc3cc(=O)[nH]c(=O)[nH]3)nnc2SCC(=O)NCc2ccco2)c1

A.
1. 108
2. 101

Lab note: each compound below needs its nuclei count filled in.
1. Cn1c(=O)c2c(nc(CN3CCN(c4ccccc4F)CC3)n2CCN2CCOCC2)n(C)c1=O
2. CCOC(=O)N1CCN(C(=O)c2cnn(-c3ccccc3)c2NC(=O)c2ccccc2F)CC1
3. CC1CCN(S(=O)(=O)c2ccc(Br)s2)CC1
4. COc1ccc(-c2nnc(SCC(=O)Nc3cc(C)on3)n2C)cc1OC

A.
1. 107
2. 106
3. 108
4. 108

* * *

- assay remarks: inhibitors of TNFa-induced NFkB p65 translocation, primary screen, imaging, HUVEC, MLSMR starter and 10KST1 sets (AID 438);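 also: compound added about 3h40 before a 20 min TNFalpha stimulation; signal is the nuclear over cytoplasmic p65 intensity ratio per well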
- condition description: HUVEC TNFa-induced p65 nuclear translocation; at 2 µM, 0% TNFa-plus-vehicle, 100% no-TNFa wells
The source made the active and inactive calls.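 How the source made its calls: active means inhibition above 20% together with a positive visual image hit; inconclusive means visual image hit but inhibition not above 20%; inactive means no visual image hit.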
Thanks in advance; please answer with one of these: active, inactive

* Cc1csc2nc(CSc3nc4ccccc4o3)c(Br)n12 | inactive
* CCCCCCNC(=O)c1c(N)n(/N=C/c2ccco2)c2nc3ccccc3nc12 | inactive
* CC1(C)CC(=O)c2cnc(NCc3ccco3)nc2C1 | inactive
* CCn1cc(C(=O)NCCC2=CCCCC2)c(=O)c2cc(S(=O)(=O)N(C)C)ccc21 | inactive
* CCCOC(=O)C1[C@H]2C(=O)N(CCCOC)C[C@]23C=C[C@H]1O3 (some centres undefined) | inactive
* O=C(c1ncc[nH]1)c1ccccc1C(=O)N1CCOCC1 | inactive
* N#CC1=C(N)N2C(=C(C#N)C13CCCCC3)SC1CCCCC12O (centres undefined) | inactive
* NC(=O)CSc1nnc(-c2cnccn2)n1-c1ccccc1 | inactive

Q. Record request — test call for CC1CCCCN1CCNC(=O)c1ccc2c(=O)n(CCc3ccccc3)c(=O)[nH]c2c1 (centres undefined)
A. active

Q. Record request — test call for "CCOc1ccc2oc(-c3ccccc3)c(C(=O)N3CCN(CCO)CC3)c2c1"
A. inactive

Q. Record request — test call for "COC(=O)c1cccc(NC(=O)CN2CCN(Cc3ccccc3)CC2)c1"
A. inactive

Q. Record request — test call for "Cc1cccc(OCC(=O)Nc2ccc(N3CCCC3)cc2)c1C"
A. inactive

Q. Record request — test call for COc1cccc(NC(=O)N2CCCC2C(=O)Nc2ccc3c(c2)OCO3)c1 (centres undefined)
A. inactive

* * *

- system under test: Muscarinic acetylcholine receptor M4 (Homo sapiens)
- assay remarks: M4-linked GIRK flux change, two-sided – cell-based, HEK293 M4/GIRK, thallium flux, BTC-AM, M4 allosteric agonist project, primary screen (AID 625);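 also: thallium influx through GIRK channels coupled to M4 in HEK293 cells with BTC-AM dye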
- condition description: at 10 µM, actives lie on both sides
Calls of active or inactive are those of the source.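 The calls were made as follows: active = fluorescence slope after compound addition differing from the mean of all tested samples at 99.7% confidence, mostly higher but some lower; inactive = the rest.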
recorded metric: fluorescence slope

• CC(=O)Nc1ccc(S(=O)(=O)N(CC(=O)O)Cc2ccccc2)cc1 = 0.00557 (inactive)
• CCN(Cc1nc2ccccc2c(=O)[nH]1)Cc1nc2cc(OC)c(OC)cc2c(=O)[nH]1 = 0.00825 (inactive)
• CCC(Sc1ccc2nnc(-c3ccc(F)cc3)n2n1)C(=O)OC (stereo not drawn) = 0.00751 (inactive)
• COC(=O)C(C)Sc1nc2c(c(=O)n(C)c(=O)n2C)n1Cc1cccc(C)c1 (stereo not drawn) = 0.00598 (inactive)
• Nc1cc(-c2ccccc2)ccc1O = 0.00771 (inactive)
• COc1ccc(CN2C(=O)c3cccnc3C2Nc2cc(Cl)ccc2OC)cc1 (stereo not drawn) = 0.00665 (inactive)
• COc1ccc(OC)c(NC(=O)CCN2CCN(c3ccccc3F)CC2)c1 = 0.00417 (inactive)
• Cc1nc2ccccc2c(=O)n1/N=C/c1ccncc1 = 0.00441 (inactive)

Lab note: each compound below needs its fluorescence slope filled in.
1. CCC1(CC)NC(=O)NC1=O
2. CCOc1cc(N2CCOCC2)c(OCC)cc1NC(=O)CSc1cccc[n+]1[O-]
3. CS(=O)(=O)N(CC(=O)O)c1cccc(Cl)c1
4. CS(=O)(=O)c1ccc2nc(NC(=O)CCC(=O)c3cccs3)sc2c1
5. CCOC(=O)c1ccccc1NC(=O)Cn1cnc2c(cnn2-c2ccc(OC)cc2)c1=O

A.
1. 0.00419 (inactive)
2. 0.00543 (inactive)
3. 0.00338 (inactive)
4. 0.00448 (inactive)
5. 0.0067 (inactive)

* * *

- assay remarks: inhibitors of TNFa-induced NFkB p65 translocation, primary screen, imaging, HUVEC, MLSMR starter and 10KST1 sets (AID 438);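 also: compound added about 3h40 before a 20 min TNFalpha stimulation; signal is the nuclear over cytoplasmic p65 intensity ratio per well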
- condition description: HUVEC TNFa-induced p65 nuclear translocation; at 2 µM, stronger effect = higher value, 0% TNFa-plus-vehicle, 100% no-TNFa wells
recorded metric: inhibition (%)
Numbers only, in %.

* O=C(Nc1sccc1C(=O)NCc1ccco1)c1cccnc1 | 2.1
* CC(Oc1ccc(Br)cc1)C(=O)N1CCc2ccccc21 (centres undefined) | 6.3

Lab note: each compound below needs its inhibition filled in.
1. COc1ccccc1CCNC(=O)C1CCCO1 (centres undefined)
2. O=C(Nc1ccon1)c1cccc(S(=O)(=O)N2CCCC2)c1
3. COC(=O)NCC(c1cccnc1)N1CCOCC1 (centres undefined)

A.
[-8.8, -2.7, -11]

Lab note: each compound below needs its inhibition filled in.
1. COc1ccccc1OCc1nc2ccccc2[nH]1
2. COc1ccc(OC)c(NC(=O)CSc2ncccc2C(=O)O)c1
3. Cc1ccc(Cn2c(=O)c3ccccc3n3c(CCC(=O)O)nnc23)cc1

A.
[1.3, 0, -13.4]

Lab note: each compound below needs its inhibition filled in.
1. COc1cc2c(cc1OC)CN(C(=O)CSc1nnc3scc(-c4ccccc4)n13)CC2
2. COc1cccc(OCc2nnc(SCC(=O)OCc3ccccc3)o2)c1
3. O=C(c1cc(-c2ccco2)nn1-c1cccc(Cl)c1)N1CCCCC1
4. O=C(NCc1ccco1)C1CCN(c2ccc(N3CCOCC3)nn2)CC1
5. CCCC(=O)Nc1ccc(NC(=O)c2cccs2)cn1
6. CS(=O)(=O)c1ccc2nc(NC(=O)CCC(=O)c3cccs3)sc2c1

A.
-0.3
3.3
-4.7
1.6
6.7
2.6

Lab note: each compound below needs its inhibition filled in.
1. CC1Oc2ccccc2N(Cc2ccccc2Cl)C1=O (centres undefined)
2. CCOC(=O)CSc1nc2sc(C)c(C)c2c(=O)[nH]1
3. Cn1cc(Cl)c(C(=O)N(Cc2ccccc2)c2ccccn2)n1
4. COc1ccc(N2CCN(C(=O)CCNS(=O)(=O)c3ccc(Br)s3)CC2)cc1

A.
15.4
1.6
8.3
2.9

* * *

- system under test: Voltage-gated potassium channel subunit beta-2 (Rattus norvegicus) (UniProt P62483)
- assay remarks: inhibitors of rat Kvbeta2 reductase activity – biochemical, NADPH fluorescence, primary screen (AID 622);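 also: slope of raw intensity against log time taken from 70 to 1610 s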
- condition description: recombinant KvBeta, 4-cyanobenzaldehyde reduction, at 10 µM, stronger effect = higher value
Lab note: anything with fluorescence slope at or over -0.5 counts as Criterion met; the rest go in Criterion not met.

Example entries and their recorded answers appear below.
- CCOC(=O)C1C(=O)NC(SCC(=O)Nc2nccs2)=C(C#N)C1c1ccccc1OCC (stereo unspecified): Criterion met
- COc1ccc(CCNC(=O)c2cc(C(C)C)on2)cc1OC: Criterion not met
- COCCCN1C(=O)C(=O)/C(=C(/O)c2ccc(OC)cc2)C1c1ccc(O)c(OC)c1 (stereo unspecified): Criterion met
- CC(=O)NC1CC2CCCC(C1)N2CC(=O)Nc1ccccc1 (stereo unspecified): Criterion not met
- Cc1ccc(CCP(=O)(O)CN2CCOCC2)cn1: Criterion met
- O=c1[nH]c(SCc2cc(=O)n3ccccc3n2)nc2c1CCC2: Criterion met

Q. Is it the case that "Nc1ccc(Sc2nnnn2-c2ccccc2)c(Cl)c1" has fluorescence slope reaching or exceeding -0.5?
A. Criterion met
